- Tested on: P. falciparum, strain NF54, erythrocytic stages
- MEASUREMENT PROTOCOL: In vitro growth inhibition assay of Plasmodium falciparum NF54 ([3H]-hypoxanthine incorporation)
- Format: cell-based
- COND: Plasmodium falciparum; strain NF54, erythrocytic stages; read-out: P. falc. IC50
- Description: In vitro activity against erythrocytic stages of P. falciparum was determined by a modified [^3H]-hypoxanthine incorporation assay using the drug-sensitive NF54 strain and the standard drug, chloroquine (Sigma C6628). […] The radioactivity was counted using a Betaplate^TM liquid scintillation counter (Wallac, Zurich). The results were recorded as counts per minute (CPM) per well at each drug concentration and expressed as a percentage of the untreated controls. […]
Listed compounds paired with reported log10(IC50)
ATTRIBUTE MEASURED: log10(IC50) (log10 of the value in µM)

COMPOUND: O=C1C=CC(O)(CCN2C(=O)c3ccccc3C2=O)C=C1 [Compound 13a]
log10(IC50): 0.58
--
COMPOUND: O=C1C=CC(O)(CCN2Cc3ccccc3C2)C=C1 [Compound 14a]
log10(IC50): 0.46
--
COMPOUND: O=C1C=CC(O)(CCN2C(=O)COCC2=O)C=C1 [Compound 13g]
log10(IC50): 1.07
--
COMPOUND: O=C1C=CC(O)(CCN2C(=O)C=CC2=O)C=C1 [Compound 13b]
log10(IC50): 0.65
--
COMPOUND: O=C1C=CC(O)(CCN2C(=O)CCC2=O)C=C1 [Compound 13c]
log10(IC50): 0.94
--
COMPOUND: O=C1C=CC(O)(CCN2C(=O)C(Cl)=C(Cl)C2=O)C=C1 [Compound 13e]
log10(IC50): 1.87
--
COMPOUND: O=C1C=CC(O)(CCN2CCOCC2)C=C1 [Compound 14c]
log10(IC50): 1.04
--
COMPOUND: O=C1C=CC(O)(CCN2C(=O)c3cccnc3C2=O)C=C1 [Compound 13f]
log10(IC50): 1.45
--
COMPOUND: O=C1C=CC(O)(CCN2C(=O)C3CC=CCC3C2=O)C=C1 (stereo not shown) [Compound 13j]
log10(IC50): 0.59
--
COMPOUND: O=C1C=CC(O)(CCN2C(=O)C3CCCCC3C2O)C=C1 (stereo not shown) [Compound 15]
log10(IC50): 0.79
--
COMPOUND: O=C1C=CC(O)(CCN2C(=O)C3=C(CCCC3)C2=O)C=C1 [Compound 13i]
log10(IC50): 0.11
--
COMPOUND: O=C1C=CC(O)(CCN2C(=O)C3CCCCC3C2=O)C=C1 (stereo not shown) [Compound 13h]
log10(IC50): 0.48
--
COMPOUND: O=C1C=CC(O)(CCN2C(=O)c3cc(Cl)c(Cl)cc3C2=O)C=C1 [Compound 13d]
log10(IC50): 0.51

###

- Test system: U251 glioblastoma cells
- MEASUREMENT PROTOCOL: XTT viability assay, U251
- Type: cell-based
- COND: Homo sapiens, U-251; U251, 50 µg/mL, 72 h; read-out: metabolic active cells in % of control
ATTRIBUTE MEASURED: viability at 50 µg/mL (%)

COMPOUND: O=C1C=CC(O)(CCN2C(=O)COCC2=O)C=C1 [Compound 13g]
UNIT OF MEASUREMENT: %
ASSAY RESULT: 65.6

COMPOUND: O=C1C=CC(O)(CCN2CCOCC2)C=C1 [Compound 14c]
UNIT OF MEASUREMENT: %
ASSAY RESULT: 1.11

COMPOUND: O=C1C=CC(O)(CCN2C(=O)C3=C(CCCC3)C2=O)C=C1 [Compound 13i]
UNIT OF MEASUREMENT: %
ASSAY RESULT: 0

COMPOUND: O=C1C=CC(O)(CCN2C(=O)C(Cl)=C(Cl)C2=O)C=C1 [Compound 13e]
UNIT OF MEASUREMENT: %
ASSAY RESULT: 1.95

COMPOUND: O=C1C=CC(O)(CCN2C(=O)c3cccnc3C2=O)C=C1 [Compound 13f]
UNIT OF MEASUREMENT: %
ASSAY RESULT: 93.7

Values were extracted from paper PMC6278284.
